Recorded values, source PubChem BioAssay AID1645838.

ASSAY_TEXT: supercomplex reporter luminescence per Hoechst cell count – Hoechst nuclei count (AID 1645838);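 further: control cybrid cells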
MEASUREMENT_CONDITIONS: Cells, luminescence/Hoechst cell count ratio, measured here: cell number, Hoechst nuclei count, library stock concentration (final well concentration not given) 80 uM
Out of some 2,000 compounds screened, about 100 (5%) were called active. The list comes from a sample in which actives are over-represented; it also holds close analogues and randomly drawn compounds.
EXPERIMENTAL_ENDPOINT: cell count
// keep it numeric: no unit symbol after the value

| MOLECULE | VALUE_REPORTED |
| --- | --- |
| NC(N)=NCCCC(NC(=O)COCC(c1ccccc1)c1ccccc1)C(=O)O (stereo unspecified) | 5010 |

input: Record request: cell count value, item CCOc1ccc(S(=O)(=O)N(CC(=O)N=Nc2c(O)[nH]c3ccccc23)c2ccccc2)cc1
output: 5190

input: What about this molecule? CS(=O)(=O)N1CCc2c(-c3cnc(N)nc3)nc(N3CCOCC3)nc21
output: 5660

input: Next molecule: Cc1ccc(COC(=O)N2CCC(CNc3ncccn3)C(F)C2)cc1 (stereo unspecified)
output: 5400

input: Please do the same for CC#CCC(C)C(O)C=CC1C(O)C[C@@H]2CC(=CCCCC(=O)O)C[C@@H]12 (stereo partly specified) as well.
output: 5530

input: Please do the same for CC(=O)c1cccc(NC(=O)CN2CCc3cc4c(cc3C2)OCCCO4)c1 as well.
output: 4960

---

# z-score per entry
ASSAY_TEXT: supercomplex reporter luminescence per Hoechst cell count – Hoechst nuclei count (AID 1645838);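 further: control cybrid cells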;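 on z-score: higher means more mitochondrial supercomplex formation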
MEASUREMENT_CONDITIONS: Cells, luminescence/Hoechst cell count ratio, library stock concentration (final well concentration not given) 1.67 mM, stronger effect = higher value
The campaign covered roughly 2,000 compounds. About 100 (5%) were called active. This is one part of a sample in which actives are shown more often than they occur.
Form rule: numeric answer, no unit written next to it.

Examples from the recorded data:
| COMPOUND | EXPERIMENTAL_ENDPOINT | VALUE_REPORTED |
| --- | --- | --- |
| COc1cc(C(=O)N(CCC2CCCN2C)CC(C)=Cc2ccccc2F)cc(OC)c1OC (stereo not given) | z-score | 0.132 |
| COc1ccc(C(=O)CC2(O)C(=O)Nc3c(Cl)ccc(Cl)c32)cc1 (stereo not given) | z-score | 3.41 |
| O=c1c(-c2ccc(O)cc2)coc2cc(O)cc(O)c12 | z-score | 0.316 |
| CCOC(=O)C(N)Cc1ccc(-c2cc(OC(c3ccc(Cl)cc3-n3ccc(C)n3)C(F)(F)F)nc(N)n2)cc1 (stereo not given) | z-score | -0.638 |
| Cc1cnc(Nc2ccc(F)cc2Cl)nc1-c1c[nH]c(C(=O)NC(CO)c2cccc(Cl)c2)c1 (stereo not given) | z-score | 2.01 |
| O=c1c(-c2ccc(O)c(O)c2)coc2cc(O)ccc12 | z-score | -0.19 |
| O=C(O)c1ccc(-c2c[nH]c3ncc(-c4ccccc4)cc23)cc1C1CCCC1 | z-score | -0.154 |
| N#Cc1cccc(C#N)c1-c1nc2c3ccccc3c3cc(Cl)ccc3c2[nH]1 | z-score | -0.196 |

input: For the compound shown here, O=c1cc(-c2cccc3c2Sc2ccccc2S3)oc(N2CCOCC2)c1 , give the reported z-score.
output: -0.27

input: Another compound: COc1cc(Nc2c(C#N)cnc3cc(OCCCN4CCN(C)CC4)c(OC)cc23)c(Cl)cc1Cl
output: 2.12

---

ASSAY_TEXT: supercomplex reporter luminescence per Hoechst cell count – Hoechst nuclei count (AID 1645838);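 further: control cybrid cells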
MEASUREMENT_CONDITIONS: Cells, luminescence/Hoechst cell count ratio, measured here: cell number, Hoechst nuclei count, library stock concentration (final well concentration not given) 10 mM
About 100 (5%) of roughly 2,000 compounds were called active. Many of the other results were omitted from the sample, so actives are more common in it than they were.
# note: exactly 5000 is not below, so it is -1; use 1 for cell count strictly under it

Examples from the recorded data:
| MOLECULE | ASSIGNED_CATEGORY |
| --- | --- |
| COc1cc(C(=O)N2CCC(N3CCN(C)CC3)CC2)ccc1Nc1ncc2c(n1)N(C)c1ccccc1C(=O)N2C | 1 |
| O=c1cc(N2CCOCC2)oc2c1ccc1ccccc12 | -1 |
| CC1CN(Cc2ccccc2)CC1c1nc2c(cnn2C2CCOCC2)c(=O)[nH]1 (centres undefined) | -1 |

input: Given CC(C)(O)c1ccccc1CCC(SCC1(CC(=O)O)CC1)c1cccc(C=Cc2ccc3ccc(Cl)cc3n2)c1 (centres undefined) , is recorded cell count strictly lower than 5000?
output: 1

input: Try this molecule next: Cc1nc(C(=O)N2CCCC2Cc2nnc(-c3ccccc3)o2)c(-c2ccccc2F)s1 (centres undefined)
output: -1

input: // next record COc1cc(C=C(C#N)C(=O)Nc2nnc(C(F)(F)F)s2)ccc1OCc1ccc(C(F)(F)F)cc1C(F)(F)F
output: -1

input: Same question, C#C[C@]1(O)CC[C@@H]2[C@@H]3CCc4cc(O)ccc4[C@@H]3CC[C@@]21C this time
output: -1

---

ASSAY_TEXT: supercomplex reporter luminescence per Hoechst cell count – Hoechst nuclei count (AID 1645838);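 further: control cybrid cells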;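 on z-score: higher means more mitochondrial supercomplex formation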
MEASUREMENT_CONDITIONS: Cells, luminescence/Hoechst cell count ratio, library stock concentration (final well concentration not given) 400 uM, stronger effect = higher value
Out of some 2,000 compounds screened, about 100 (5%) were called active. The sample holds actives, similar compounds and a random draw of the others, so the mix is not that of the screen.
EXPERIMENTAL_ENDPOINT: z-score
A bare number is all that is needed in reply.

| MOLECULE | z-score |
| --- | --- |
| CC(OC1OCCN(Cc2n[nH]c(=O)[nH]2)C1c1ccc(F)cc1)c1cc(C(F)(F)F)cc(C(F)(F)F)c1 (stereo not given) | -0.157 |
| CN1CCN(c2ccc(Nc3c4ccccc4nc4ccccc34)cc2)CC1 | 1.07 |
| O=C(O)c1cc2ccccc2c(Cc2c(O)c(C(=O)O)cc3ccccc23)c1O | 0.355 |
| COc1cc(NS(C)(=O)=O)ccc1Nc1c2ccccc2nc2ccccc12 | 2.51 |

Turning now to a further record.
input: Which z-score value is on record for COc1ccc(C(=O)C(=O)c2ccc(OC)cc2)cc1 ?
output: -0.661

---

ASSAY_TEXT: supercomplex reporter luminescence per Hoechst cell count – Hoechst nuclei count (AID 1645838);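 further: control cybrid cells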;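 on z-score: higher means more mitochondrial supercomplex formation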
MEASUREMENT_CONDITIONS: Cells, luminescence/Hoechst cell count ratio, library stock concentration (final well concentration not given) 1.67 mM, stronger effect = higher value
In all, about 2,000 compounds went through this assay and about 100 (5%) were called active. Shown is part of a subset that was picked to be rich in actives.
z-score listing for selected compounds.

Worked cases, answers included:
| COMPOUND | z-score |
| --- | --- |
| COc1cccc(-c2ccc(NC(=O)C3=C(C(=O)O)CCC3)c(F)c2)c1 | -0.285 (inactive) |
| O=C1C(Cc2ccc(O)cc2)N2C(=O)CCN(C(=O)NCc3ccccc3)C2CN1Cc1cccc2ccccc12 (centres undefined) | -1.5 (inactive) |
| CCc1nc(N)nc(N)c1-c1ccc(Cl)cc1 | -0.256 (inactive) |

input: Which z-score is listed for CC(C)(C)CC1NC(C(=O)NC2CCC(O)CC2)C(c2cccc(Cl)c2F)[C@]12C(=O)Nc1cc(Cl)ccc12 (some centres undefined) ?
output: -0.98 (inactive)

input: Note, next up: COc1cccc(-c2cn(-c3ccc(CCN4CCC(O)CC4)cc3)c3ncnc(N)c23)c1
output: 0.503 (inactive)

input: And CCCCCCCCCCC(=O)O ?
output: -0.0647 (inactive)

input: One more compound: O=C(O)C1CCC(c2cc3cccnc3c(-c3cccc(F)c3)n2)CC1 (centres undefined)
output: 1.5 (inactive)

input: What do we get for O=C(Cc1cccc(OC(F)(F)F)c1)Nc1ccc(CCCCc2nnc(NC(=O)Cc3ccccn3)s2)nn1 ?
output: 4.04 (active)

input: Also CCOc1cc(CC(=O)NC(CC(C)C)c2ccccc2N2CCCCC2)ccc1C(=O)O (centres undefined) , if possible.
output: -0.332 (inactive)

---

ASSAY_TEXT: supercomplex reporter luminescence per Hoechst cell count – Hoechst nuclei count (AID 1645838);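 further: control cybrid cells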
MEASUREMENT_CONDITIONS: Cells, luminescence/Hoechst cell count ratio, measured here: cell number, Hoechst nuclei count, library stock concentration (final well concentration not given) 278 uM
About 100 (5%) of roughly 2,000 compounds were called active. This is one part of a sample in which actives are shown more often than they occur.
Output rule met for records whose cell count is lower than 7000, rule not met for records at or above 7000.

Known results for compounds:
| CHEM_SMILES | ASSIGNED_CATEGORY |
| --- | --- |
| O=C(O)CCn1nnc2ccccc21 | rule not met |
| CCOC(=O)NCCCC(=O)NCCc1ccccc1 | rule met |
| NC(=O)c1cnc(NCCc2ccc(O)c(Cl)c2)nc1NCc1ccccc1 | rule met |
| COc1ccccc1Oc1c(NS(=O)(=O)c2ccc(C)cn2)nc(-c2ccncc2)nc1OC | rule met |
| c1ccc(Nc2nc3c(s2)CCCc2[nH]ncc2-3)nc1 | rule met |

Proceed to the following item.
input: Criterion: cell count strictly below 7000. Is it met by Cc1cc(Nc2cc(NC(=O)c3c(Cl)cccc3Cl)ccn2)nc(N)n1 ?
output: rule met
